B1: TRAF3IP2 (parent)
chain: PRPPSNPPARGTLKTSNLPEELRK

Variants of: B1
assaySummary: protein stability index of a GFP-peptide fusion (GPS, HEK-293T) (PSI 1-6); higher = more stable;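 further: lentivirally expressed fusions sorted by FACS into six bins by GFP to DsRed ratio, PSI derived from sequencing read proportions per bin multiplied by bin number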
experimentalContext: c terminus: a fixed tail appended
quantityName: protein stability index
Give only the figure.

Entry PRPPSYPPARGTLKTSNLPEELRK [N6Y] ; protein stability index = 4.99

What the record says about PRPPSNWPARGTLKTSNLPEELRK [P7W] : protein stability index is 4.02

# variant PRPPSNPPARGTLKTSNLPEEVRK [L22V] ; its protein stability index = 3.16

protein stability index reported for this variant PRPPSNPDARGTLKTSNLPEELRK [P8D] : 4.99

// protein stability index value for PRPPSNPPARGTLKTSNLPEELRH [K24H] : 4.79

// protein stability index lookup, variant = PRPPSNPPARGTLKTSNLDEELRK [P19D] , result: 4.89

Entry under test: PRPPSNPPARGTLKTSILPEELRK [N17I] . Its protein stability index was 4.55

variant PRPPSNPPAGGTLKTSNLPEELRK [R10G] , protein stability index observed: 4.27

Entry PRPPSNPPARSTLKTSNLPEELRK [G11S] , protein stability index reported as 4.54

Note to self: protein stability index recorded for PRPPSNPPHRGTLKTSNLPEELRK [A9H] was 4.63

PRPPSNPPARGTLKTSNLPEILRK [E21I] has a reported protein stability index of 4.29

The variant identified as PRPPSNPPARGTNKTSNLPEELRK [L13N] registered its protein stability index at 5.15

For this variant ( PRPPSNPPARGTLKTSNLPEYLRK [E21Y] ), measured protein stability index is 4.23

Given item PRPPSNPPARGTLKKSNLPEELRK [T15K] , the value recorded as its protein stability index is 4.82

Form: variant = PRPPSNPPARGTLKQSNLPEELRK [T15Q] ; protein stability index = 4.48

Reported protein stability index of PRPPSNQPARGTLKTSNLPEELRK [P7Q] : 4.56

Please fill in: protein stability index reported for PRPPSQPPARGTLKTSNLPEELRK [N6Q] = 4.78

Lab note: PFPPSNPPARGTLKTSNLPEELRK [R2F] gave protein stability index of 5.09

Per the record, PRPASNPPARGTLKTSNLPEELRK [P4A] has protein stability index of 4.79

Noted for PRPPNNPPARGTLKTSNLPEELRK [S5N] : its protein stability index reads 4.63

Summary for this variant, PRPPSNVPARGTLKTSNLPEELRK [P7V] : protein stability index is 4.11

Memo: PRPPSNPPARGTLSTSNLPEELRK [K14S] , reported protein stability index: 5.4

GET /value?item= PRPPSNPPDRGTLKTSNLPEELRK [A9D] &field=protein stability index returns 5

For PRPPSNPPARGTLKTSNLWEELRK [P19W] the variant record lists protein stability index as 3.98

Form: variant = PRPPSNPPARGTLKTSNLPEELEK [R23E] ; protein stability index = 4.94

Recorded protein stability index (variant PRPPSNPPARGSLKTSNLPEELRK [T12S] ): 4.35

According to the records, this variant PRPPSNPPARGTLKTWNLPEELRK [S16W] displays protein stability index of 3.47

Record PRPPSNPPARVTLKTSNLPEELRK [G11V] . Reported protein stability index: 4.37

For this variant ( PRPPCNPPARGTLKTSNLPEELRK [S5C] ), measured protein stability index is 4.28

Per the records, this variant ( PRPPSNPPARGTLKTSNLPEELFK [R23F] ) has protein stability index equal to 3.92
